experimentalSystem: G12C K-Ras4B (1-169) (Homo sapiens, UniProt P01116, G12C)
Construct: G12C K-Ras4B (1-169) protein, which was a KRAS G12C mutant; His tag (N, cleaved yes); made in house; host or cells: E. coli BL21 (DE3)
protocolDescription: Binding to KRAS G12C mutant, compound binding rate by LC-MS
runConditions: final compound concentration 2 μM, 1 μM protein, 2 hours at 25° C.
measurementLabel: binding rate for G12C K-Ras4B (1-169)

Worked set:
C=CC(=O)N1CC(NC(=O)c2cnc(CNc3nc([Si](C)(C)C)c(Cl)cc3O)n2C)C1 [Example 84]	A (80% or more)
C=CC(=O)N1CC(N(C)C(=O)c2ccc(CNc3cc(C(C)(C)C)c(Cl)cc3O)o2)C1 [Example 4]	A (80% or more)
C=CC(=O)N1CC(NC(=O)c2cn(C)c(CNc3cc(C(C)(C)C)c(Cl)cc3O)n2)C1 [Example 25]	E (less than 20%)
C=CC(=O)N1CC(N(C)C(=O)c2cccc(CNc3cc(C(C)(C)C)c(Cl)cc3O)n2)C1 [Example 30]	E (less than 20%)
C=CC(=O)N1CC(N(C)C(=O)c2cc(CNc3cc(C(C)(C)C)c(Cl)cc3O)co2)C1 [Example 34]	A (80% or more)

Challenge: Entry C=CC(=O)N1CC(NC(=O)c2cnc(CNc3cc(CC(F)(F)F)c(Cl)cc3O)n2C)C1 [Example 56] has what binding rate for G12C K-Ras4B (1-169)?
Response given: E (less than 20%)

Challenge: Could you tell me which binding rate for G12C K-Ras4B (1-169) is on file for C=CC(=O)N1CC(NC(=O)c2cnc(CNc3cc(S(F)(F)(F)(F)F)ccc3O)n2C)C1 [Example 75] ?
Response given: E (less than 20%)

Challenge: Please give the measured binding rate for G12C K-Ras4B (1-169) for this compound: C=CC(=O)N1CC(N(C)C(=O)c2nc(CNc3cc(C(C)(C)C)c(Cl)cc3O)cs2)C1 [Example 29]
Response given: A (80% or more)

Challenge: Give the measured binding rate for G12C K-Ras4B (1-169) of C=CC(=O)N1CC(NC(=O)c2cnc(Cc3cc(C(C)(C)C)c(Cl)cc3O)n2C)C1 [Example 97] .
Response given: A (80% or more)

Challenge: Consider the compound shown here: C=CC(=O)N1CC(NC(=O)c2nc(CNc3cc(C(C)(C)C)c(Cl)cc3O)cn2C)C1 [Example 19] What is its recorded binding rate for G12C K-Ras4B (1-169)?
Response given: A (80% or more)

---

experimentalSystem: KRAS G12C mutant (Homo sapiens, UniProt P01116, G12C)
Construct: 50 μM G12C K-Ras4B (1-169) protein and 1 mM BODIPY® FL GDP; His tag (N, cleaved yes); made in house; host or cells: E. coli BL21 (DE3)
protocolDescription: Inhibition of SOS1-mediated nucleotide (GDP-GTP) exchange reaction of KRAS G12C mutant, BODIPY FL GDP fluorescence
Format: biochemical
runConditions: preincubated 25° C. 4 hours with 25 nM KRAS G12C bound with BODIPY FL GDP; SOS1 100 nM, GppNHp 1 μM, 30 minutes
# IC50 annotations
I only need the number, in nM, no unit after it.

C=CC(=O)N1CC(NC(=O)c2cnc(Cc3cc(C(C)(C)C)c(Cl)cc3O)n2C)C1 [Example 97]	22
C=CC(=O)N1CC(N(C)C(=O)c2cnc(CNc3cc(C(C)(C)C)c(Cl)cc3O)o2)C1 [Example 28]	201
C=CC(=O)N1CC(NC(=O)c2cnc(CNc3cc(S(F)(F)(F)(F)F)ccc3O)n2C)C1 [Example 75]	661
C=CC(=O)N1CC(NC(=O)c2c(C)nc(CNc3cc(C(C)(C)C)c(Cl)cc3O)n2Cc2cccnc2)C1 [Example 46]	5

Challenge: Return reported IC50; argument: C=CC(=O)N1CC(N(C)C(=O)c2sc(CNc3cc(C(C)(C)C)c(Cl)cc3O)nc2C)C1 [Example 35]
Response given: 463

Challenge: Give its IC50 value. Item: C=CC(=O)N1CC(NC(=O)c2c(C)nc(CNc3nc([Si](C)(C)C)c(Cl)cc3O)n2C)C1 [Example 85]
Response given: 39

Challenge: IC50 for C=CC(=O)N1CC(N(C)C(=O)c2csc(CNc3cc(C(C)(C)C)c(Cl)cc3O)n2)C1 [Example 32] ?
Response given: 64

---

Entries and their measured IC50 follow.
experimentalSystem: KRAS G12C mutant (Homo sapiens, UniProt P01116, G12C)
Construct: 50 μM G12C K-Ras4B (1-169) protein and 1 mM BODIPY® FL GDP; His tag (N, cleaved yes); made in house; host or cells: E. coli BL21 (DE3)
protocolDescription: Inhibition of SOS1-mediated nucleotide (GDP-GTP) exchange reaction of KRAS G12C mutant, BODIPY FL GDP fluorescence
Type: biochemical
runConditions: preincubated 25° C. 4 hours with 25 nM KRAS G12C bound with BODIPY FL GDP; SOS1 100 nM, GppNHp 1 μM, 30 minutes
Report the value in nM with no unit label.

Illustrative cases are given below, each with its answer.
C=CC(=O)N1CC(NC(=O)c2ccc(CNc3cc(C(C)(C)C)c(Cl)cc3O)cc2)C1	753
C=CC(=O)N1CC(NC(=O)c2ccc(CNc3cc(C(=C)C)c(Cl)cc3O)o2)C1	4740
C=CC(=O)N1CC(NC(=O)c2c(C)nc(C(O)c3cc(C(C)(C)C)c(Cl)cc3O)n2C)C1 (centres unmarked)	128
C=CC(=O)N1CC(NC(=O)c2cnc(C(C)Nc3cc(C(C)(C)C)c(Cl)c(F)c3O)n2C)C1 (centres unmarked)	1040

Challenge: Query (compound): C=CC(=O)N1CC(NC(=O)c2cnc(CNc3cc(C(C)(C)C)c(C=C)cc3O)n2C)C1 ; field requested: IC50
Response given: 89

Challenge: Any idea what its IC50 is? The compound is C=CC(=O)N1CC(NC(=O)c2cnc(CNc3cc(S(F)(F)(F)(F)F)c(Cl)cc3O)n2C)C1
Response given: 995

Challenge: Any idea what IC50 was measured for C=CC(=O)N1CC(NC(=O)c2c(C)nc(C(O)c3cc(C(C)(C)C)c(F)cc3O)n2C)C1 (centres unmarked) ?
Response given: 500

Challenge: Find the recorded IC50 belonging to C=CC(=O)N1CC(N(C)C(=O)c2nc(CNc3cc(C(C)(C)C)c(Cl)cc3O)cs2)C1 and report it.
Response given: 12

---

experimentalSystem: KRAS G12C mutant (Homo sapiens, UniProt P01116, G12C)
Construct: 50 μM G12C K-Ras4B (1-169) protein and 1 mM BODIPY® FL GDP; His tag (N, cleaved yes); made in house; host or cells: E. coli BL21 (DE3)
protocolDescription: Inhibition of SOS1-mediated nucleotide (GDP-GTP) exchange reaction of KRAS G12C mutant, BODIPY FL GDP fluorescence
Assay type: biochemical
runConditions: preincubated 25° C. 4 hours with 25 nM KRAS G12C bound with BODIPY FL GDP; SOS1 100 nM, GppNHp 1 μM, 30 minutes
Each entry below carries its recorded log10 of IC50.
Remember, log10 of IC50, in nM.

Examples with their reported log10 of IC50 follow.
CN(C)C/C=C/C(=O)N1CC(NC(=O)c2cnc(CNc3cc(C(C)(C)C)c(Cl)cc3O)n2C)C1	1.79
C=CC(=O)N1CC(NC(=O)c2cnc(CNc3cc(C(C)C)c(Cl)cc3O)n2C)C1	1.57
C=CC(=O)N1CC(NC(=O)c2cnc(CNc3cc(CC(F)(F)F)c(Cl)cc3O)n2C)C1	2.78
C=CC(=O)N1CC(NC(=O)c2cnc(CNc3cc(C(C)(C)C)c(Cl)cc3O)n2CCN(C)C)C1	0.95
C=CC(=O)N1CC(NC(=O)c2cnc(CNc3nc([Si](C)(C)C)c(Cl)cc3O)n2C)C1	1.80
C=CC(=O)N1CC(NC(=O)c2cncc(CNc3cc(C(C)(C)C)c(Cl)cc3O)c2)C1	3.32

Challenge: Look up log10 of IC50: C=CC(=O)N1CC(NC(=O)c2cnc(CCc3cc(C(C)(C)C)c(Cl)cc3O)n2C)C1
Response given: 2.74

Challenge: For the molecule C=CC(=O)N1CC(NC(=O)c2c(C)nc(Cc3cc(C(C)(C)C)c(Cl)cc3O)n2C)C1 , what log10 of IC50 is on record?
Response given: 1.74

Challenge: Bench note: what log10 of IC50 did C=CC(=O)N1CC(NC(=O)c2c(C)nc(CNc3cc(C(C)(C)C)c(Cl)cc3O)n2C)C1 show?
Response given: 0.70

Challenge: Requested field: log10 of IC50. Item: C=CC(=O)N1CC(NC(=O)c2nc(CNc3cc(C(C)(C)C)c(Cl)cc3O)cs2)C1
Response given: 1.83

Challenge: Fill blank: measured log10 of IC50 of the molecule C=CC(=O)N1CC(NC(=O)c2c(C)nc(CNc3cc(C(C)(C)C)c(C)cc3O)n2C)C1 is ____.
Response given: 1.23

Challenge: For the molecule C=CC(=O)N1CC(NC(=O)c2ccc(CNc3cc(C(F)(F)F)c(Cl)cc3O)o2)C1 , what log10 of IC50 is on record?
Response given: 3.50

Challenge: What value of log10 of IC50 has been recorded for this entry: C=CC(=O)N1CC(NC(=O)c2cc(CNc3cc(C(C)(C)C)c(Cl)cc3O)ccn2)C1
Response given: 3.48

Challenge: What value of log10 of IC50 has been reported for the following molecule? C=CC(=O)N1CC(NC(=O)c2c(C)nc(Cc3cc(C(C)(C)C)c(F)cc3O)n2C)C1
Response given: 2.23

Challenge: Quick check: log10 of IC50 of C=CC(=O)N1CC(N(C)C(=O)c2cccc(CNc3cc(C(C)(C)C)c(Cl)cc3O)n2)C1 ?
Response given: 3.23

Challenge: Which value of log10 of IC50 has been reported for C=CC(=O)N1CC(NC(=O)c2cnc(CNc3cc(C(F)(F)F)c(Cl)cc3O)n2C)C1 in the records?
Response given: 2.62

The measurements presented in this section are drawn from patent US12479834B2.
